# System: MDA-MB-435 melanoma
# PROTOCOL_DETAILS: NCI-60 one-dose screen, 48 h (100 = growth as untreated, 0 = no growth, -100 = all killed)
# ASSAY_SETUP: 10 µM unless noted
The panel holds about 83,000 compounds, 20% with a hit somewhere; the sample as a whole holds those more often.
QUANTITY: growth (%)

> print(dat)
                                smiles.entry  quantity  measurement.units  observed
 1  CC(C)(O)c1cncc(-c2ccc3ncc(C#N)c(N4CCc5cc(F)c(Cl)cc54)c3c2)c1    growth                  %      17.9
 2  CCc1cc2c(cc1Cl)nc1c(=O)[nH]c(=O)nc-1n2CCOCC(C)(C)C    growth                  %      33.5
 3  O=C1/C(=C/c2cc(F)cc(F)c2)Cc2cc3c(cc21)OCO3    growth                  %     -44.3
 4  N#Cc1nc(-c2ccc(Cl)cc2)oc1N1CCC(S(=O)(=O)N2CCOCC2)CC1    growth                  %        99
 5        COC(=O)CCSC1=C(C)C(=O)c2ccccc2C1=O    growth                  %       106
 6  N#Cc1c(-c2ccc(Br)cc2)cc(-c2c[nH]c3ccccc23)nc1N    growth                  %     0.353
 7  CCOC(=O)c1c(NC(=O)c2cccc(C(F)(F)F)c2)sc2c1CCC(=O)C2    growth                  %      59.4
 8  CNC(=O)c1cc(N2CCc3cc(NC(=O)Nc4ccc(N5CCOCC5)c(C(F)(F)F)c4)ccc32)ccn1    growth                  %      41.5
 9  NC(=O)c1c(NC(=O)c2ccc(C(F)(F)F)cc2)sc2c1CCC(=O)C2    growth                  %     -8.14
10  CN1CCN(c2ccc(Nc3nc(NCCNC(=O)c4ccccc4)c4sccc4n3)cc2)CC1    growth                  %      59.3
11  CCOc1cccc(/C(N)=N/C(N)=N/c2nc3ccccc3s2)c1    growth                  %      99.9
12  Cc1cc(NS(=O)(=O)c2ccc(NC(=O)CSc3nc4ccccc4c(=O)n3-c3ccccc3)cc2)no1    growth                  %        98
13  CCn1c2ccc(/C=N/N(C)S(=O)(=O)CCN(C)C)cc2c2cc(/C=N/N(C)S(=O)(=O)CCN(C)C)ccc21    growth                  %        62
14  O=C(N/N=C/c1cc2ccccc2nc1Cl)c1cc(-c2nc3ccccc3[nH]2)nc2ccccc12    growth                  %       101
15  Cc1ccc2c(n1)C(=O)C(Cl)=C(Nc1cccc(C(F)(F)F)c1)C2=O    growth                  %      71.3
16  CC1=C(C)C(=O)C(Nc2ccc3c(c2)OCCO3)=C(Br)C1=O    growth                  %       102
17  COC(=O)c1ccc(NC2=C(Cl)C(=O)C(C)=C(C)C2=O)cc1    growth                  %      7.22
